The measurements presented in this section are drawn from PubChem BioAssay (NCI).

# System: CCRF-CEM leukemia
# assayOverview: NCI tumour cell line growth inhibition, 48 h
The threshold is inclusive: TGI of exactly 60 µM counts as Satisfied; values below receive Not satisfied.

IN: Tell me whether TGI is at least 60 µM here: CS(=O)(=O)OCCCNCCCOS(C)(=O)=O
OUT: Satisfied

IN: Tell me whether TGI is at least 60 µM here: CC(C)Oc1cccc(N2C(Nc3ccccc3)=Nc3ccncc3S2(=O)=O)c1
OUT: Satisfied

---

# System: HCC-2998 colon
# assayOverview: NCI tumour cell line growth inhibition, 48 h
The threshold is inclusive: TGI of exactly 30 µM counts as met; values below receive not met.

Some solved entries appear below for comparison.
>>> df
                               samplesmiles  assignedlabel
0  C#C[C@@]1(O)[C@@H](CO)O[C@@H](n2cc(I)c3c(N)ncnc32)[C@@H]1O        not met
1  COc1ccc(-c2ccc(/C=N/n3c(COc4ccccc4Cl)nn(CN4CCOCC4)c3=S)o2)c([N+](=O)[O-])c1            met
2             Cc1cc(-c2nc3cccc(O)c3s2)ccc1N            met
3  CC(C)N(Cc1ccc(CN(C(=O)CCl)C(C)C)cc1)C(=O)CCl        not met
4  CS(=O)(=O)Nc1cccc(-c2ccc3ncnc(Nc4ccc(F)c(Cl)c4)c3c2)c1        not met

IN: Tell me whether TGI is at least 30 µM here: COc1ccc(C(=O)c2cc(C)c(OC)c(C)c2)c(OC)c1NC(C)=O
OUT: met

IN: Tell me whether TGI is at least 30 µM here: CCN(CC)C(=O)Cn1c2c(c3ccccc31)CCCC2
OUT: met

IN: Tell me whether TGI is at least 30 µM here: O=C(CN(/C=C/C(=O)C(F)(F)F)c1ccc(Cl)cc1)c1ccc(Cl)c(Cl)c1
OUT: not met

IN: Tell me whether TGI is at least 30 µM here: COc1ccc(/C=C/c2c(C(=O)/C=C/c3ccc(C(F)(F)F)cc3)c(C)nc3ccccc23)cc1
OUT: not met
